target or system: GPR174-v38 (Homo sapiens)
assay summary: Inhibition of PS-induced GPR174 Gs signaling (GloSensor), HEK293 stably transfected with GPR174-v38
conditions used: PS liposomes 1 μM; GPR174-v38 (compound 59: data not shown); read-out: apparent IC50, inhibition of PS-induced GPR174 Gs signaling
pIC50: −log10 of the molar value.
As shown below, each of these molecules has a reported pIC50 value.
measured metric: pIC50

molecule | recorded measurement
CCOc1ccc(C2C3=C(CCCC3=O)NC3=C2C(=O)c2ccccc23)cc1OCC (stereo not drawn) | ~5.89
Cc1ccccc1Nc1nnc(-c2ccc(C)c(S(N)(=O)=O)c2)c2ccccc12 | ~5.52
O=C(c1ccccc1)N1CCN(c2cc(N3CCCCC3)c(F)cc2[N+](=O)[O-])CC1 | ~7.00
S=C(NCc1ccco1)Nc1ccc(I)cc1 | ~5.00
O=[N+]([O-])c1cc(F)c(N2CCCCC2)cc1N1CCN(S(=O)(=O)c2ccccc2)CC1 | ~7.00
CCOc1ccc(C2C3=C(CCCC3=O)NC3=C2C(=O)c2ccccc23)cc1 (stereo not drawn) | ~6.82
